Experiment: Rat brain radioactivity content and metabolite profiles after single oral 5 mg/kg [14C]DCDQ
Type: in vivo, Sprague-Dawley rats
Conditions: male rats, 24 hour post-dose
EXPERIMENTAL READOUT: Brain radioactivity concentration
Give the figure together with its unit, number first.

q: Need Brain radioactivity concentration, item c1cc2c3c(c1)[C@H]1CCC[C@H]1CN3CCNC2 [[^14C]DCDQ]
a: 0.037 µg equivalents/g tissue

* * *

Assay: Concentrations of DCDQ and DCDQ carbamoyl glucuronide (M6) in human plasma, LC/SRM (Table 34)
Format: in vivo, healthy human subjects
Conditions: human, plasma, oral, 200 mg, plasma, 200 mg (fasted), 24 hr, Mean ± S.D.; read-out: M6 concentration in plasma
Description: Drug administration and specimen collection were performed in a randomized, double-blinded, placebo-controlled, ascending single dose study of the safety, tolerability, pharmacokinetics, and pharmacodynamics of DCDQ administered orally to healthy subjects and subjects with schizophrenia and schizoaffective disorder. […] LC/MS System 3 was used for semi-quantitative analysis of metabolite M6 (DCDQ carbamoyl glucuronide) in plasma and urine samples. […]
EXPERIMENTAL READOUT: concentration at 24 h (ng/mL)
// units = ng/mL; emit number, no label

q: Please look up its concentration at 24 h: O=C(O)[C@H]1O[C@@H](OC(=O)N2CCN3C[C@@H]4CCC[C@@H]4c4cccc(c43)C2)[C@H](O)[C@@H](O)[C@@H]1O [Metabolite M6, carbamoyl glucuronide of DCDQ]
a: 7.67

* * *

Assay: Concentrations of DCDQ and DCDQ carbamoyl glucuronide (M6) in human plasma, LC/SRM (Table 34)
Type: in vivo, healthy human subjects
Details: human, plasma, oral, 300 mg, plasma, 300 mg (fed), 12 hr, individual subjects; read-out: DCDQ concentration in plasma
EXPERIMENTAL READOUT: concentration at 12 h (ng/mL)
Note: unit ng/mL is implicit; provide only the numeric part.

q: Given the compound c1cc2c3c(c1)[C@H]1CCC[C@H]1CN3CCNC2 [DCDQ, reference compound] , what is its reported concentration at 12 h?
a: 10.9

* * *

Test: Dog urinary excretion and metabolite profiles after oral capsule of [14C]DCDQ
Assay type: in vivo, beagle dogs
Conditions: 24-48 hr, dog 3
Rule: Chromatographic distribution of radioactivity in dog urine under 8% gives not satisfied, otherwise satisfied.

OC1[C@@H]2CCC[C@@H]2c2cccc3c2N1CCNC3 (some centres unmarked) [Metabolite M2, hydroxy DCDQ]	satisfied

q: Is Chromatographic distribution of radioactivity in dog urine for O=C1CC[C@@H]2c3cccc4c3N(CCNC4)C[C@H]12 [Metabolite M7, 17-keto DCDQ] at or above 8%?
a: satisfied

q: Check c1cc2c3c(c1)[C@H]1CCC[C@H]1CN3CCNC2 [DCDQ, reference compound] too.
a: not satisfied

q: Note, next up: O=C(O)[C@H]1O[C@@H](OC(=O)N2CCN3C[C@@H]4CCC[C@@H]4c4cccc(c43)C2)[C@H](O)[C@@H](O)[C@@H]1O [Metabolite M6, carbamoyl glucuronide of DCDQ]
a: not satisfied

q: Please answer likewise for OC1CN2C[C@@H]3CCC[C@@H]3c3cccc(c32)CN1 (some centres unmarked) [Metabolite M1, hydroxy DCDQ]
a: not satisfied

* * *

Experiment: Metabolites of DCDQ identified in dogs by LC/MS analysis (Table 26)
Assay type: in vivo, beagle dogs
Conditions: P = plasma, U = urine, B = brain, F = feces
EXPERIMENTAL READOUT: Matrix

OC1[C@@H]2CCC[C@@H]2c2cccc3c2N1CCNC3 (some centres unmarked) [Metabolite M2, hydroxy DCDQ]	P, U, F
OC1CN2C[C@@H]3CCC[C@@H]3c3cccc(c32)CN1 (some centres unmarked) [Metabolite M1, hydroxy DCDQ]	P, U
O=C1CC[C@@H]2c3cccc4c3N(CCNC4)C[C@H]12 [Metabolite M7, 17-keto DCDQ]	P, U
O=C(O)[C@H]1O[C@@H](OC(=O)N2CCN3C[C@@H]4CCC[C@@H]4c4cccc(c43)C2)[C@H](O)[C@@H](O)[C@@H]1O [Metabolite M6, carbamoyl glucuronide of DCDQ]	P, U

Would you kindly look at the next entry?
q: Please report the recorded Matrix for c1cc2c3c(c1)[C@H]1CCC[C@H]1CN3CCNC2 [DCDQ, reference compound] .
a: P, U, F
